Tested on: HCV replicon in Huh7 cells
test.summary: HCV replicon cell-based assay (FRET)
Set-up: species or system HCV strain 1b
recorded.conditions: Hepatitis C virus, Huh-7, 96 h, 4 days, read-out: Activity Range EC50
pEC50: −log10 of the molar value.
Catalogue of compounds with associated pEC50

Illustrative cases are given below, each with its answer.
>  <compound>
C=CC1C[C@]1(NC(=O)[C@@H]1C[C@@H](Oc2cc(-c3ccccc3)nc3cc(OC)ccc23)CN1C(=O)[C@@H](NC(=O)OC)C(C)(C)C)C(=O)NS(=O)(=O)N(C)Cc1ccccc1 (stereo partly drawn)

>  <pEC50>
5.82 to 6.82

$$$$
>  <compound>
C=CC1C[C@]1(NC(=O)[C@@H]1C[C@@H](Oc2cc(-c3ccccc3)nc3cc(OC)ccc23)CN1C(=O)[C@@H](NC(=O)OC(C)(C)C)C(C)(C)C)C(=O)NS(=O)(=O)N(C)CC (stereo partly drawn)

>  <pEC50>
> 6.82

$$$$

As a next step, examine the compound that follows.
Item: C=CC1C[C@]1(NC(=O)[C@@H]1C[C@@H](Oc2cc(-c3ccccc3)nc3cc(OC)ccc23)CN1C(=O)[C@@H](NC(=O)OC)C(C)(C)C)C(=O)NS(=O)(=O)N1CCN(C)CC1 (stereo partly drawn) | pEC50: < 5.82

---

The following molecules are listed with their measured pIC50 values.
assayed.system: HCV NS3/4A protease complex (UniProt P27958, C1454S/C1711G, species not given)
Construct: fused on or other part: Three-lysine solubilising tail at the C-terminus of NS4A
test.summary: Recombinant HCV NS3/4A protease complex FRET peptide assay (strain not stated)
recorded.conditions: NS3/4A protease enzyme assay, read-out: Activity Range IC50
pIC50: −log10 of the molar value.

>  <molecule>
C=CC1C[C@]1(NC(=O)[C@@H]1C[C@@H](Oc2cc(-c3ccccc3)nc3cc(OC)ccc23)CN1C(=O)[C@@H](NC(=O)OC)C(C)(C)C)C(=O)NS(=O)(=O)N1CCCCO1 (some centres unmarked)

>  <assayed.system>
HCV NS3/4A protease complex (UniProt P27958, C1454S/C1711G, species not given)

>  <observed.value>
5.82 to 6.82

$$$$

In the following, a different molecule is considered.
Lab note: molecule C=CC1C[C@]1(NC(=O)[C@@H]1C[C@@H](Oc2nccc3cc(OC)ccc23)CN1C(=O)[C@@H](NC(=O)OC(C)(C)C)C(C)(C)C)C(=O)NS(=O)(=O)N(C)C (some centres unmarked) tested on HCV NS3/4A protease complex (UniProt P27958, C1454S/C1711G, species not given); recorded pIC50 was > 6.82

---

This listing pairs compounds with measured EC50.
System: HCV replicon in Huh7 cells
test.summary: HCV replicon cell-based assay (FRET)
Set-up: species or system HCV strain 1b
recorded.conditions: Hepatitis C virus, Huh-7, 96 h, 4 days, read-out: Activity Range EC50

Known results for compounds:
>  <compound>
C=CC1CC1(NC(=O)[C@@H]1C[C@@H](Oc2cc(-c3ccccc3)nc3cc(OC)ccc23)CN1C(=O)[C@@H](NC(=O)OC)C(C)(C)C)C(=O)NS(=O)(=O)N1CCCC1 (mixture of isomers)

>  <observed.property>
EC50

>  <observed.value>
0.15 to 1.5 µM

$$$$
>  <compound>
C=CC1C[C@]1(NC(=O)[C@@H]1C[C@@H](Oc2nccc3cc(OC)ccc23)CN1C(=O)[C@@H](NC(=O)OC(C)(C)C)C(C)(C)C)C(=O)NS(=O)(=O)N(C)c1ccccc1 (stereo partly drawn)

>  <observed.property>
EC50

>  <observed.value>
< 0.15 µM

$$$$

Consider the record given below.
Entry C=CC1C[C@]1(NC(=O)[C@@H]1C[C@@H](Oc2nc(-c3ccncc3)cc3ccccc23)CN1C(=O)[C@@H](NC(=O)OC(C)(C)C)C(C)(C)C)C(=O)NS(=O)(=O)N(C)C (stereo partly drawn) , tested on HCV replicon in Huh7 cells, has a reported EC50 of < 0.15 µM

---

assayed.system: HCV NS3/4A protease complex (UniProt P27958, C1454S/C1711G, species not given)
Construct: fused on or other part: Three-lysine solubilising tail at the C-terminus of NS4A
test.summary: Recombinant HCV NS3/4A protease complex FRET peptide assay (strain not stated)
recorded.conditions: NS3/4A protease enzyme assay, read-out: Activity Range IC50
Excerpt: The purpose of this in vitro assay was to measure the inhibition of HCV NS3 protease complexes, derived from the BMS strain, H77 strain or J416S strain, as described below, by compounds of the present invention. This assay provides an indication of how effective compounds of the present invention would be in inhibiting HCV proteolytic activity. Serum from an HCV-infected patient was obtained from Dr. T. Wright, San Francisco Hospital. […]
pIC50: −log10 of the molar value.
observed.property: pIC50

>  <molecule>
C=CC1C[C@]1(NC(=O)[C@@H]1C[C@@H](Oc2nccc3cc(OC)ccc23)CN1C(=O)[C@@H](NC(=O)OC(C)(C)C)C(C)(C)C)C(=O)NS(=O)(=O)N1CCCC1 (stereo partly drawn) [Compound 18]

>  <pIC50>
> 6.82

$$$$
>  <molecule>
C=CC1C[C@]1(NC(=O)[C@@H]1C[C@@H](Oc2cc(-c3ccccc3)nc3cc(OC)ccc23)CN1C(=O)[C@@H](NC(=O)OC)C(C)(C)C)C(=O)NS(=O)(=O)N(C)CC (stereo partly drawn) [Compound 1]

>  <pIC50>
> 6.82

$$$$

pIC50 recorded for this molecule, C=CC1C[C@]1(NC(=O)[C@@H]1C[C@@H](Oc2nccc3cc(OC)ccc23)CN1C(=O)[C@@H](NC(=O)OC(C)(C)C)C(C)(C)C)C(=O)NS(=O)(=O)N(C)c1ccccc1 (stereo partly drawn) [Compound 20] , is > 6.82
